# Test system: NCI/ADR-RES ovarian
Outcomes: 1 for active, 0 for inactive

COMPOUND: COc1cc(Cl)cc(-c2nn(-c3cccc(NC(=O)Nc4ccc(Cl)c(C(F)(F)F)c4)c3)cc2-c2ccncc2)c1
DISCRETE_LABEL: 0

COMPOUND: O=C1NCCS(=O)(=O)/C1=C\C=C\c1cccc(C(F)(F)F)c1
DISCRETE_LABEL: 0

COMPOUND: COc1cc2c3c(n(CCCN=[N+]=[N-])c(=O)c2cc1OC)-c1ccc(N(C)C)cc1C3=O
DISCRETE_LABEL: 0

COMPOUND: CC(C)COC(=O)c1ccc2[nH]c(O)c(C=Nc3ccc(S(N)(=O)=O)cc3)c2c1
DISCRETE_LABEL: 0

COMPOUND: COc1ccc(Nc2c3ccccc3nc3[nH]c4ccccc4c23)cc1
DISCRETE_LABEL: 0

COMPOUND: ClCc1ccc(Cn2cnc3c(Cl)nc(Cl)nc32)cc1
DISCRETE_LABEL: 0

COMPOUND: COc1ccc(-c2nn(-c3cccc(NC(=O)c4ccc(N5CCOCC5)c(C(F)(F)F)c4)c3)cc2-c2ccncc2)cc1Cl
DISCRETE_LABEL: 0

COMPOUND: O=C(Nc1ccc(I)cc1F)c1cc(Cl)ccc1O
DISCRETE_LABEL: 1

COMPOUND: Cc1ccc(-c2nc(N3CCCNCC3)c3oc(-c4ccc(C)cc4)nc3n2)cc1
DISCRETE_LABEL: 0

COMPOUND: C=CCCCc1ccc(C(O)CCCCCCCCCCCC)o1 (stereo not given)
DISCRETE_LABEL: 0
